# target.desc: GST-tagged Tnks-2 (873-1166 aa) (Homo sapiens, UniProt Q9H2K2)
# Sequence (Q9H2K2 873-1166): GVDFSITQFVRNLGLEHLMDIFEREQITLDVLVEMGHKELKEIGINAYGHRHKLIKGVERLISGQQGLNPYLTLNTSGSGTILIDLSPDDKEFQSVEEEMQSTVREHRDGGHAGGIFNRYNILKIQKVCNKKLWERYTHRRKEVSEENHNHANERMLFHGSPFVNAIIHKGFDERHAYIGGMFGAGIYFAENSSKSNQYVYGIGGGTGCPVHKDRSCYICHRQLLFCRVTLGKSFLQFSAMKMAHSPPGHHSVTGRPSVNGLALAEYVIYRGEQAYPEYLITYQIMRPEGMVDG
result.type: IC50

INSERT INTO assay_data (compound, assay_value) VALUES
  ('CC(C)(O)c1ccc(-c2cn3cncc3c(=O)[nH]2)cc1 [Compound A6]', '< 300 nM'),
  ('Cc1ncc2c(=O)[nH]c(-c3ccc(C(C)(C)C)cc3)cn12 [Compound A7]', '< 300 nM'),
  ('O=c1[nH]c(-c2ccc(C(F)(F)F)cc2)cn2cncc12 [Compound A3]', '< 300 nM'),
  ('Cc1ccc(-c2cn3cncc3c(=O)[nH]2)cc1 [Compound A1, 6-p-tolyl-7H-imidazo[1,5-a]pyrazin-8-one]', '300 to 3000 nM');
